The measured values listed here are drawn from patent US20230391714A1.

Quick reference: IC50 of the listed items.
# experimental-target: TRIP8b-HCN1c40 (Homo sapiens (Human), UniProt Q8IYB4)
# Sequence (Q8IYB4 265-626): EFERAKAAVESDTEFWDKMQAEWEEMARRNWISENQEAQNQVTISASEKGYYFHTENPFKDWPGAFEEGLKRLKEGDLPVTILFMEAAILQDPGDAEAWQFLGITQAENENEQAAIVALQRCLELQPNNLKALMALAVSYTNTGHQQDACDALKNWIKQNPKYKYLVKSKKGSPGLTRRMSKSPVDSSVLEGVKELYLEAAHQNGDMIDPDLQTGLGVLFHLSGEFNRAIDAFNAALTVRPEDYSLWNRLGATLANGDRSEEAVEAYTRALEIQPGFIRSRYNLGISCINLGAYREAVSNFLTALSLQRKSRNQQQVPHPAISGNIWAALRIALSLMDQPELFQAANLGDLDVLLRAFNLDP
# protocol-notes: TRIP8b-HCN1c40 AlphaScreen assay
# Assay type: binding
# details: read-out: TRIP8b-HCN1c40 Alphascreen IC50

smiles-representation	IC50
Cc1cccc(-c2ccc(OCC(=O)NCc3cccnc3)c(CN3CC[C@H](N)C3)c2)c1	> 40000 nM
CN1CCN(Cc2cc(-c3ccc(Cl)c(Cl)c3)ccc2OCC(=O)Nc2ccc(Cl)c(Cl)c2)CC1	< 740 nM
CN1CCN(Cc2cc(-c3c(Cl)cc(Cl)cc3Cl)ccc2OCC(=O)NCc2ccc(Cl)cc2)CC1	< 740 nM
